# Target Or Test System: T1, human plasma kallikrein (human, UniProt P03952 20-390; P03952 391-638)
# T1 construct: two disulfide-linked chains; NP_000883.2; also called pKal; hpKal
# T1 sequence (P03952 20-390 limits assumed, chain 1 of 2): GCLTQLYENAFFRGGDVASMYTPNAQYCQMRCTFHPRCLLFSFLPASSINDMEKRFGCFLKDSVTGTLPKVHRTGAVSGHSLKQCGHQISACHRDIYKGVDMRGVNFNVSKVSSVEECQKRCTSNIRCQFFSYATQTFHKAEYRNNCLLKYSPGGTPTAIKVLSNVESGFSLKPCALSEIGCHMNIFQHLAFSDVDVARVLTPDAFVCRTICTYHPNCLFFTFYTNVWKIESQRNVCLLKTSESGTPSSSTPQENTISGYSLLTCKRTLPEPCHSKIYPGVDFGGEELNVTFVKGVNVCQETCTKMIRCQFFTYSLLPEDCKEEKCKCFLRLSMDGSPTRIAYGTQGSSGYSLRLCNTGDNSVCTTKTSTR
# T1 sequence (P03952 391-638 limits assumed, chain 2 of 2): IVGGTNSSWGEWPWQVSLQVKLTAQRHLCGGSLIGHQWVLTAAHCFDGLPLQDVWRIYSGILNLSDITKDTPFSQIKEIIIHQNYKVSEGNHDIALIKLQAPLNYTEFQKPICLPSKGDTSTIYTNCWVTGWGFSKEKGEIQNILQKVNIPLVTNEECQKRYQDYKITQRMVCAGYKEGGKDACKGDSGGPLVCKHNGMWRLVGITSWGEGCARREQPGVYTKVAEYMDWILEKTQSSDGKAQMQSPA
# Procedure Text: ELISA, biotinylated pKal signal over streptavidin background
Each record here notes measured ELISA (T/B).
When you answer, write just the number.

Binder: M74-A07 (Fab, V domains shown) VH: EVQLLESGGGLVQPGGSLRLSCAASGFTFSQYLMMWVRQAPGKGLEWVSSIYPSGGYTSYADSVKGRFTISRDNSKNTLYLQMNSLRAEDTAVYYCARVSTAVADNDYWGQGTLVTVSS VL: DIQMTQSPSSLSASVRDRVTITCRTSQNINTYLNWYYQAPGRAPKLLIFGVSSLHRGVSSRFSGSGDGTEFTLTISSLQPEDIGTYFCQQSYSSPWTFGQGTKVEIK
Value Type: ELISA (T/B)
Val: 8.6
--
Binder: M9-F10 (Fab, V domains shown) VH: EVQLLESGGGLVQPGGSLRLSCAASGFTFSDYDMEWVRQAPGKGLEWVSSISPSGGSTIYADSVKGRFTISRDNSKNTLYLQMNSLRAEDTAVYYCARQGLLTAFDIWGQGTMVTVSS VL: DIQMTQSPSSLSASVGDRVTITCRASQSINTYLNWYQQKPGKAPKVLIHAASTLESGVPSRFSGSGSGTDFTLTISSLQPEDFATYYCQQSYSTPYTFGQGTKLEVR
Value Type: ELISA (T/B)
Val: 8.4
--
Binder: M27-H10 (Fab, V domains shown) VH: EVQLLESGGGLVQPGGSLRLSCAASGFTFSAYQMAWVRQAPGKGLEWVSVIYSSGGYTDYADSVKGRFTISRDNSKNTLYLQMNSLRAEDTAVYYCARHNWNDGAFDIWGQGTMVTVSS VL: DIQMTQSPSSLSASVGDRVTITCRASQSISNYLNWYQQKPGKAPKFLIYAASSLQSGVPSRFSGSGSGTDFTLSISSLQPEDFATYYCQQSYSTPQTFGQGTKVEMK
Value Type: ELISA (T/B)
Val: 12.4
--
Binder: M27-F11 (Fab, V domains shown) VH: EVQLLESGGGLVQPGGSLRLSCAASGFTFSSYHMMWVRQAPGKGLEWVSSIYPSGGATMYADSVKGRFTISRDNSKNTLYLQMNSLRAEDTAMYYCARDGYHYGDYTYFQHWGQGTLVTVSS VL: DIQMTQSPSFLSASVGDRVTITCRASQGISSYLAWYQQKPGKAPKLLIYAASSLQSGVPSRFSGSGSGTDFTLTISSLQPEDFATYYCQQSYNTLRTFGPGTKVDLK
Value Type: ELISA (T/B)
Val: 10

Challenge: Any idea what ELISA (T/B) was measured for M29-G10 (Fab, V domains shown) VH: EVQLLESGGGLVQPGGSLRLSCAASGFTFSFYKMIWVRQAPGKGLEWVSSISSSGGSTQYADSVKGRFTISRDNSKNTLYLQMNSLRAEDTAVYYCARDRVDLGYLDYWGQGTLVTVSS VL: DIQMTQSPSSLSSSVGDSATITCRASQSISIYLNWYQQKPGKAPKILIYGASQLESGVPSRFSGSGSGTDFTLTVSGLQPEDFATYWCQQSYNVPYTFGQGTKLEIK ?
Response given: 16.4

Challenge: Any idea what ELISA (T/B) was measured for M27-G01 (Fab, V domains shown) VH: EVQLLESGGGLVQPGGSLRLSCAASGFTFSLYRMFWVRQAPGKGLEWVSSIWSSGGPTMYADSVKGRFTISRDNSKNTLYLQMNSLRAEDTAVYYCAREYPSTYYFDYWGQGTLVTVSS VL: DIQMTQSPSSLSASVGDRVTITCRASQSISTYLNWYQQKPGKAPKLLIYGASSLQSGVPSRFSGSGSGTDFTLTISSLQPEDFTIYYCQQSYSDPYTFGQGTKLDIK ?
Response given: 31.4
